These entries and their values trace back to ChEMBL document CHEMBL1201862.

tested on: OVCAR-5; test: NCI tumour cell line growth inhibition, 48 h
Among all 57,000 sequences or so, about 2,500 (4.4%) were called active. These entries were drawn from the full list. Potency and affinity values are given separately.
Consider the cut-off 7 µM. If the recorded GI50 is strictly smaller, the label is met; if not, the label is not met.

Known results for substances:
{"columns": ["substance", "labelValue"],
 "data": [
  ["[Bis(aminomethyl)tetramethylenesilane]tetrachloropaltinum(IV), CHEMBL2146189", "met"],
  ["[Bis(aminomethyl)pentamethylenesilane]tetrachloropaltinum(IV), CHEMBL2146204", "met"],
  ["mu-(1,7-nanodiamine-N,N')bis-(cis-aminedichloroplatimum (II)), CHEMBL2146215", "not met"]
]}

Problem: In plain terms, does cis-Bis[[(trimethylsilyl)methyl]amino]tetrachloroplatinum(IV), CHEMBL2146191 come in under 7 µM for GI50?
Solution: not met

Problem: In plain terms, does [Bis(aminomethyl)dimethylsilane]tetrachloroplatinum(IV), CHEMBL2146190 come in under 7 µM for GI50?
Solution: not met

Problem: In plain terms, does [Bis(aminomethyl)dimethylsilane]dichloroplatinum (II), CHEMBL2146201 come in under 7 µM for GI50?
Solution: not met
